# target.of.assay: purified human Hsp90
# Construct: purified human Hsp90 (Stressgen, SPP-770)
# assay.procedure: Hsp90 binding assay: displacement of BODIPY-labeled geldanamycin measured by fluorescence polarization
# settings: BODIPY-GM 10 nM, Hsp90 30 nM, overnight at room temperature; read-out: GM displacement from purified Hsp90 measured by FP IC 50
readout.kind: IC50 (nM)
Please give a number only; it is taken to be in nM.

See these solved cases before continuing.
cpd.smiles	value.units	readout.number
CS(=O)(=O)NCC(=O)N1CCC(CCn2c(Sc3cc4c(cc3Br)OCO4)nc3c(N)ncnc32)CC1	nM	360
CC(=O)N1CCC(CCn2c(Sc3cc4c(cc3CC#N)OCO4)nc3c(N)ncnc32)CC1	nM	2500

# input for lookup
Respond only with IC50 recorded for N#Cc1cc2c(cc1Sc1nc3c(N)ncnc3n1CCC1CCN(C=O)CC1)OCCO2
120

Cited source: patent US20100292255A1
